Source of measurements: paper PMC11492202

- subject_of_test: UniProt:P06873
- Sequence (P06873 106-384): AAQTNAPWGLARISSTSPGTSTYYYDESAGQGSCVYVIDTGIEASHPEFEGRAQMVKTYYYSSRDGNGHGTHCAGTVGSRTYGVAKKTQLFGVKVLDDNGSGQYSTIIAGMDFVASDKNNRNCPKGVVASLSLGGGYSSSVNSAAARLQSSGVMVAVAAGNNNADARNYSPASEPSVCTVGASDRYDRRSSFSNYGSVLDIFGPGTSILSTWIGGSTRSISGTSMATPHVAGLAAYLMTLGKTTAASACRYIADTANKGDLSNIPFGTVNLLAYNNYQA
pIC50: −log10 of the molar value.
readout_name: pIC50

{"query_smiles": "Cc1ccccc1C(=O)NC(=S)Nc1nc(-c2ccccc2)cc(-c2ccc(Cl)cc2)n1", "pIC50": 5.75}
{"query_smiles": "Cc1ccc(-c2cc(-c3ccccc3)nc(NC(=S)NC(=O)c3ccccc3)n2)cc1", "pIC50": 5.74}
{"query_smiles": "COc1ccc(C(=O)NC(=S)Nc2nc(-c3ccccc3)cc(-c3ccc(Cl)cc3)n2)cc1OC", "pIC50": 5.74}

* * *

- subject_of_test: α-amylase
- assay_protocol: In vitro α-amylase inhibition assay
- Assay type: biochemical
- condition: read-out: α-Amylase inhibition IC50 ± SEM; starch substrate, pH 6.9
readout_name: IC50 (nM)

{"query_smiles": "COc1ccc(C(=O)NC(=S)Nc2nc(-c3ccccc3)cc(-c3ccc(Cl)cc3)n2)cc1OC", "value": 1610}
{"query_smiles": "Cc1ccccc1C(=O)NC(=S)Nc1nc(-c2ccccc2)cc(-c2ccc(Cl)cc2)n1", "value": 1660}
{"query_smiles": "O=C(NC(=S)Nc1nc(-c2ccccc2)cc(-c2ccc(Cl)cc2)n1)c1cccc2ccccc12", "value": 1600}
{"query_smiles": "Cc1ccc(C(=O)NC(=S)Nc2nc(-c3ccccc3)cc(-c3ccc(Cl)cc3)n2)cc1", "value": 1480}
{"query_smiles": "O=C(NC(=S)Nc1nc(-c2ccccc2)cc(-c2ccc(Cl)cc2)n1)C1CCCCC1", "value": 1520}
{"query_smiles": "Cc1ccc(-c2cc(-c3ccccc3)nc(NC(=S)NC(=O)c3ccccc3)n2)cc1", "value": 1550}
{"query_smiles": "O=C(NC(=S)Nc1nc(-c2ccccc2)cc(-c2ccc(Br)cc2)n1)c1ccccc1", "value": 1680}
{"query_smiles": "O=C(NC(=S)Nc1nc(-c2ccccc2)cc(-c2ccc(F)cc2)n1)c1ccccc1", "value": 1660}
{"query_smiles": "Cc1ccc(-c2cc(-c3ccc(F)cc3)nc(NC(=S)NC(=O)c3ccccc3)n2)cc1", "value": 1550}

* * *

Quick reference: Antibacterial zone of inhibition of the listed items.
- System: Bacillus subtilis
- assay_protocol: Antibacterial disc diffusion assay
- Assay type: cell-based
- condition: 37 °C, 24 hours
All answers are understood in mm, so give the number only.

Exercise: Dear colleague, please send me the reported Antibacterial zone of inhibition for COc1ccc(C(=O)NC(=S)Nc2nc(-c3ccccc3)cc(-c3ccc(Cl)cc3)n2)cc1OC when you can.
Solution: 9

* * *

- Test system: Escherichia coli
- assay_protocol: Antibacterial disc diffusion assay
- Assay type: cell-based
- condition: 37 °C, 24 hours
readout_name: Antibacterial zone of inhibition (mm)
Answer with a number only, understood to be in mm.

Example compounds with recorded Antibacterial zone of inhibition:
{"query_smiles": "Cc1ccc(C(=O)NC(=S)Nc2nc(-c3ccccc3)cc(-c3ccc(Cl)cc3)n2)cc1", "Antibacterial zone of inhibition (mm)": 6}
{"query_smiles": "Cc1ccc(-c2cc(-c3ccc(F)cc3)nc(NC(=S)NC(=O)c3ccccc3)n2)cc1", "Antibacterial zone of inhibition (mm)": 8}

Exercise: Provide Antibacterial zone of inhibition, system Escherichia coli, entry Cc1ccccc1C(=O)NC(=S)Nc1nc(-c2ccccc2)cc(-c2ccc(Cl)cc2)n1
Solution: 7

* * *

Listed molecules paired with reported Antibacterial zone of inhibition
- Test system: Bacillus subtilis
- assay_protocol: Antibacterial disc diffusion assay
- Type: cell-based
- condition: 37 °C, 24 hours
Just the number please, in mm, no unit attached.

Exercise: Answer with the recorded Antibacterial zone of inhibition for the molecule listed here: O=C(NC(=S)Nc1nc(-c2ccccc2)cc(-c2ccc(Br)cc2)n1)c1ccccc1
Solution: 8

Exercise: Using the record for Cc1ccc(-c2cc(-c3ccccc3)nc(NC(=S)NC(=O)c3ccccc3)n2)cc1 , state its measured Antibacterial zone of inhibition.
Solution: 8

Exercise: Please look at this molecule and report its Antibacterial zone of inhibition: Cc1ccc(C(=O)NC(=S)Nc2nc(-c3ccccc3)cc(-c3ccc(Cl)cc3)n2)cc1
Solution: 7

Exercise: Fill in reported Antibacterial zone of inhibition for this entry: O=C(NC(=S)Nc1nc(-c2ccccc2)cc(-c2ccc(Cl)cc2)n1)C1CCCCC1
Solution: 11

Exercise: Supply Antibacterial zone of inhibition value. Item: O=C(NC(=S)Nc1nc(-c2ccccc2)cc(-c2ccc(Cl)cc2)n1)c1cccc2ccccc12
Solution: 8

Exercise: Report measured Antibacterial zone of inhibition; entry is CO[C@H]1/C=C/O[C@@]2(C)Oc3c(C)c(O)c4c(O)c(c(/C=N/N5CCN(C)CC5)c(O)c4c3C2=O)NC(=O)/C(C)=C\C=C\[C@H](C)[C@H](O)[C@@H](C)[C@@H](O)[C@@H](C)[C@H](OC(C)=O)[C@@H]1C [Rifampin, reference compound]
Solution: 26

Exercise: Supply recorded Antibacterial zone of inhibition for Cc1ccc(-c2cc(-c3ccc(F)cc3)nc(NC(=S)NC(=O)c3ccccc3)n2)cc1 here.
Solution: 9

Exercise: Please indicate Antibacterial zone of inhibition recorded for O=C(NC(=S)Nc1nc(-c2ccccc2)cc(-c2ccc(F)cc2)n1)c1ccccc1
Solution: 7

Exercise: Complete the entry with Antibacterial zone of inhibition for Cc1ccccc1C(=O)NC(=S)Nc1nc(-c2ccccc2)cc(-c2ccc(Cl)cc2)n1
Solution: 6
